tgt: platelet lipoxygenase (Homo sapiens)
Construct: metabolism of radioactively labelled arachidonic acid by washed human platelets; endogenous in cells; host or cells: washed human platelets
Sequence (P18054 1-663): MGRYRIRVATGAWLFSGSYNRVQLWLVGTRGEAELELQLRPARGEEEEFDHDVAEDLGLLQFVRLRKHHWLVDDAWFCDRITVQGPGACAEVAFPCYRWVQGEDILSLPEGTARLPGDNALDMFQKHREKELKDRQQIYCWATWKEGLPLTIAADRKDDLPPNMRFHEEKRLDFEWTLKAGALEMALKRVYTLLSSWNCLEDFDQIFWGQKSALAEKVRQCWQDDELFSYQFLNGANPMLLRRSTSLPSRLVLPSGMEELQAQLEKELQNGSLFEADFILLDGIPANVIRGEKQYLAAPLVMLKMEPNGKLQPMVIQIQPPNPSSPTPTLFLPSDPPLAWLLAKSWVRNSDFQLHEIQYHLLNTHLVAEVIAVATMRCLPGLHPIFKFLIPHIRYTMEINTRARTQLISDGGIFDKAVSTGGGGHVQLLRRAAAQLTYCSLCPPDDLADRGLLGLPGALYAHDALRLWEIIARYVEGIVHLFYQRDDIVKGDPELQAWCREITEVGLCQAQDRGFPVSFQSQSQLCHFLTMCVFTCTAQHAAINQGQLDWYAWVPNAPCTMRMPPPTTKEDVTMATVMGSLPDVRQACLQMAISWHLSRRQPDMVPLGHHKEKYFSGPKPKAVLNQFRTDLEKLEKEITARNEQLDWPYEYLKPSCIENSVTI
assay procedure: Inhibition of the platelet lipoxygenase (synthesis of HETE), metabolism of radioactively labelled arachidonic acid by washed human platelets
Type: cell-based
conditions used: in vitro
For each entry below, report its Minimum effective inhibitory concentration (at least 50% inhibition) value.
Answers are plain numbers, in g/mL.

Field: example entries. Status: answers known.
O=C1c2ccc([N+](=O)[O-])cc2C(=O)N1Sc1ccc(Cl)cc1 [Example 40]; 3e-06
CCC(C)Sn1cnc2ccccc21 (stereo not drawn) [Example 84]; 1e-05

Problem: Which Minimum effective inhibitory concentration (at least 50% inhibition) is listed for O=C1C(=O)N(Sc2ccccc2)c2ccccc21 [Example 68] ?
Solution: 3e-06
